Test protocol: Pharmacokinetics of MB-905 in plasma of mice
Condition details: both, CD1, mouse, plasma, iv, 3 mg/kg
Reported metric: Cmax (ng/mL)
Write the value in ng/mL as a bare number.

Please report Cmax for the following molecule: c1coc(CNc2ncnc3[nH]cnc23)c1 [MB-905, kinetin]
135

----------
Test protocol: Toxicokinetics in the 28-day study
Format: in vivo, mice
Condition details: male, CD1, mouse, in vivo, po, 80 mg/kg, male mice; 80 mg/kg; Day 28
Reported metric: AUC (ng·h/mL)
Write the value in ng·h/mL as a bare number.

Please report AUC for the following molecule: c1coc(CNc2ncnc3[nH]cnc23)c1 [MB-905, kinetin]
1170
